Recorded half-life at 1 μM values for a group of molecules are listed next.
- Protocol text: Stability of JAK3 covalent inhibitors in human whole blood;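 also: parent compound remaining over incubation time quantified by LC-MS/MS as peak area ratio against an internal standard, using pooled K2-EDTA blood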
- Assay type: in vitro ADME
- Run conditions: both sexes, whole blood, 37° C., read-out: Human blood stability t1/2

Molecule smiles | half-life at 1 μM
C#CCNC(=O)c1c[nH]c2ncc(NC3CCN(C(=O)C=C)CC3)nc12 | > 5.85 h

Give half-life at 1 μM for `C=CC(=O)N1CCC(Nc2cnc3[nH]cc(C(=O)NCC(F)(F)F)c3n2)CC1`
3.63 h

Retrieve half-life at 1 μM measured for `C=CC(=O)N1C[C@H](O)C[C@@H](Nc2ncnc3[nH]ccc23)C1` and print it.
> 6 h
